Biological target: human alpha2A receptors (Homo sapiens, UniProt P08913)
Sequence (P08913 whole entry): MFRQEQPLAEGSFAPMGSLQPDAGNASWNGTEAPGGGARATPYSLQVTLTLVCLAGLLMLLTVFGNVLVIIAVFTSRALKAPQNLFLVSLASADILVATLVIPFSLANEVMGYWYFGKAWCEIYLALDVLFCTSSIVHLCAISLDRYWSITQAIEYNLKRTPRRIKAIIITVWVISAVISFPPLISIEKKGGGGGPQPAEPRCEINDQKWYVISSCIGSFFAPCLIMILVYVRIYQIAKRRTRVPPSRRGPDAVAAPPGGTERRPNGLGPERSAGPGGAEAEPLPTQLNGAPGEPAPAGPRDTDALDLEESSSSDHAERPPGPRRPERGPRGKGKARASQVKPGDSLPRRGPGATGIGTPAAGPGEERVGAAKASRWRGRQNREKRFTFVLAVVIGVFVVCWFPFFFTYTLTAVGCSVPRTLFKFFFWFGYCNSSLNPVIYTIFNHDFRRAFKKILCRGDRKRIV
Assay: cell-based
valueKind: IC50

Data request: // IC50 lookup, key: CCN1CCN([C@H]2CCCN(C[C@H]3COc4ccccc4O3)C2)C1=O
Data returned: > 10 µM

Data request: What would you report for O=C1c2ccccc2C(=O)N1[C@H]1CCCN(C[C@H]2COc3ccccc3O2)C1 ?
Data returned: > 10 µM

Data request: What would you report for O=C1NC(c2ccccc2)C(=O)N1[C@H]1CCCN(C[C@H]2COc3ccccc3O2)C1 (stereo partly shown) ?
Data returned: 2.34 µM

Okay, next one:
Data request: // IC50 lookup, key: CCN1C(=O)CC(=O)N([C@H]2CCCN(C[C@H]3COc4ccccc4O3)C2)C1=O
Data returned: > 10 µM

Hey, just so you know, these numbers are from patent US20190152992A1.
